target: ETB receptor (Sus scrofa); construct: The plasma membrane of porcine lung (2 mg of protein); experiment: Endothelin (ET) receptor binding assay, ETB receptor; details: [^125 I]ET-3 alone; porcine lung plasma membrane; 37° C., 1 hour, pH 7.4
Sequence (P35463 27-443): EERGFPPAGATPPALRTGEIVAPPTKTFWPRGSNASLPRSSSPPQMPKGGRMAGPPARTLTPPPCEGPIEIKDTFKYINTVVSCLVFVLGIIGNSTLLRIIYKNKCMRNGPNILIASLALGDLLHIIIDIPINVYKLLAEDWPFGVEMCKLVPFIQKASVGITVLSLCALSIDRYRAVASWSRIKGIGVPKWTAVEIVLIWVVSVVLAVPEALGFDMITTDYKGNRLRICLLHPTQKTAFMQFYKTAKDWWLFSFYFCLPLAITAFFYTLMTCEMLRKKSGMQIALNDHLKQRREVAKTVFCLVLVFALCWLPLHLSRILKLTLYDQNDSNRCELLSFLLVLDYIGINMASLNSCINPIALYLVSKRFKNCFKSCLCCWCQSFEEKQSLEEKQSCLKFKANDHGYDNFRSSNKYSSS
Parameter measured: Ki (nM)

CCCCS(=O)(=O)NC(=O)[C@@H](NC(=O)C(Cc1ccc(-c2ccno2)cc1)N(C)C(=O)c1cc(C)cc(C)c1)C(C)C (stereo partly drawn) : 1.2

[a] CCCCS(=O)(=O)NC(=O)[C@H](Cc1c[nH]c2ccccc12)NC(=O)C(Cc1ccc(-n2ccnn2)cc1)N(C)C(=O)c1cc(C)cc(C)c1 (stereo partly drawn)
[b] CCCCS(=O)(=O)NC(=O)[C@@H](NC(=O)C(Cc1ccc(-c2ccno2)cc1)N(C)C(=O)c1cc(C)cc(C)c1)[C@@H](C)CC (stereo partly drawn)
# compare Ki for a vs b ; return the one with the smaller value Please indicate the selected item by its label. a

====

molecular target: ETB receptor (Sus scrofa); construct: The plasma membrane of porcine lung (2 mg of protein); test: Endothelin (ET) receptor binding assay, ETB receptor; settings: [^125 I]ET-3 alone; porcine lung plasma membrane; 37° C., 1 hour, pH 7.4
Parameter measured: Ki (nM)

CCCCS(=O)(=O)NC(=O)[C@H](Cc1c[nH]c2ccccc12)NC(=O)C(Cc1ccc(-n2cncn2)cc1)N(C)C(=O)c1cc(C)cc(C)c1 (stereo partly shown) : 0.16
Cc1cc(C)cc(C(=O)N(C)[C@H](Cc2ccc(-c3ccno3)cc2)C(=O)NC(Cc2c[nH]c3ccccc23)C(=O)NS(=O)(=O)c2ccccc2)c1 (stereo partly shown) : 0.34

[1] Cc1cc(C)cc(C(=O)N(C)[C@H](Cc2ccc(-c3ccsc3)cc2)C(=O)NC(Cc2c[nH]c3ccccc23)C(=O)NS(=O)(=O)c2cccs2)c1 (stereo partly shown)
[2] Cc1cc(C)cc(C(=O)N(C)[C@H](Cc2ccc(-c3ccccc3)cc2)C(=O)NC(Cc2c[nH]c3ccccc23)C(=O)NS(=O)(=O)c2ccccc2)c1 (stereo partly shown)
Recorded Ki values differ for 1 and 2 ; which one is higher? Please indicate the selected item by its label. 2

====

target: ETB receptor (Sus scrofa); construct: The plasma membrane of porcine lung (2 mg of protein); assay: Endothelin (ET) receptor binding assay, ETB receptor; settings: [^125 I]ET-3 alone; porcine lung plasma membrane; 37° C., 1 hour, pH 7.4
Parameter measured: Ki (nM)

C=CCS(=O)(=O)NC(=O)[C@H](Cc1c[nH]c2ccccc12)NC(=O)C(Cc1ccc(-c2ccno2)cc1)N(C)C(=O)c1cc(C)cc(C)c1 (stereo partly drawn) [Example 9] : 0.23

[1] CCCCS(=O)(=O)NC(=O)[C@H](Cc1c[nH]c2ccccc12)NC(=O)C(Cc1ccc(-c2ccno2)cc1)N(C)C(=O)c1cc(C)cc(C)c1 (stereo partly drawn) [Example 8]
[2] Cc1cc(C)cc(C(=O)N(C)[C@H](Cc2ccc(O)cc2)C(=O)NC(Cc2c[nH]c3ccccc23)C(=O)NS(=O)(=O)c2ccccc2)c1 (stereo partly drawn) [7(9)]
# compare Ki for 1 vs 2 ; return the one with the smaller value Please indicate the selected item by its label. 1
(1: 0.24 nM, 2: 2.3 nM)
